Target: UniProt Q15858
Sequence (Q15858 whole entry): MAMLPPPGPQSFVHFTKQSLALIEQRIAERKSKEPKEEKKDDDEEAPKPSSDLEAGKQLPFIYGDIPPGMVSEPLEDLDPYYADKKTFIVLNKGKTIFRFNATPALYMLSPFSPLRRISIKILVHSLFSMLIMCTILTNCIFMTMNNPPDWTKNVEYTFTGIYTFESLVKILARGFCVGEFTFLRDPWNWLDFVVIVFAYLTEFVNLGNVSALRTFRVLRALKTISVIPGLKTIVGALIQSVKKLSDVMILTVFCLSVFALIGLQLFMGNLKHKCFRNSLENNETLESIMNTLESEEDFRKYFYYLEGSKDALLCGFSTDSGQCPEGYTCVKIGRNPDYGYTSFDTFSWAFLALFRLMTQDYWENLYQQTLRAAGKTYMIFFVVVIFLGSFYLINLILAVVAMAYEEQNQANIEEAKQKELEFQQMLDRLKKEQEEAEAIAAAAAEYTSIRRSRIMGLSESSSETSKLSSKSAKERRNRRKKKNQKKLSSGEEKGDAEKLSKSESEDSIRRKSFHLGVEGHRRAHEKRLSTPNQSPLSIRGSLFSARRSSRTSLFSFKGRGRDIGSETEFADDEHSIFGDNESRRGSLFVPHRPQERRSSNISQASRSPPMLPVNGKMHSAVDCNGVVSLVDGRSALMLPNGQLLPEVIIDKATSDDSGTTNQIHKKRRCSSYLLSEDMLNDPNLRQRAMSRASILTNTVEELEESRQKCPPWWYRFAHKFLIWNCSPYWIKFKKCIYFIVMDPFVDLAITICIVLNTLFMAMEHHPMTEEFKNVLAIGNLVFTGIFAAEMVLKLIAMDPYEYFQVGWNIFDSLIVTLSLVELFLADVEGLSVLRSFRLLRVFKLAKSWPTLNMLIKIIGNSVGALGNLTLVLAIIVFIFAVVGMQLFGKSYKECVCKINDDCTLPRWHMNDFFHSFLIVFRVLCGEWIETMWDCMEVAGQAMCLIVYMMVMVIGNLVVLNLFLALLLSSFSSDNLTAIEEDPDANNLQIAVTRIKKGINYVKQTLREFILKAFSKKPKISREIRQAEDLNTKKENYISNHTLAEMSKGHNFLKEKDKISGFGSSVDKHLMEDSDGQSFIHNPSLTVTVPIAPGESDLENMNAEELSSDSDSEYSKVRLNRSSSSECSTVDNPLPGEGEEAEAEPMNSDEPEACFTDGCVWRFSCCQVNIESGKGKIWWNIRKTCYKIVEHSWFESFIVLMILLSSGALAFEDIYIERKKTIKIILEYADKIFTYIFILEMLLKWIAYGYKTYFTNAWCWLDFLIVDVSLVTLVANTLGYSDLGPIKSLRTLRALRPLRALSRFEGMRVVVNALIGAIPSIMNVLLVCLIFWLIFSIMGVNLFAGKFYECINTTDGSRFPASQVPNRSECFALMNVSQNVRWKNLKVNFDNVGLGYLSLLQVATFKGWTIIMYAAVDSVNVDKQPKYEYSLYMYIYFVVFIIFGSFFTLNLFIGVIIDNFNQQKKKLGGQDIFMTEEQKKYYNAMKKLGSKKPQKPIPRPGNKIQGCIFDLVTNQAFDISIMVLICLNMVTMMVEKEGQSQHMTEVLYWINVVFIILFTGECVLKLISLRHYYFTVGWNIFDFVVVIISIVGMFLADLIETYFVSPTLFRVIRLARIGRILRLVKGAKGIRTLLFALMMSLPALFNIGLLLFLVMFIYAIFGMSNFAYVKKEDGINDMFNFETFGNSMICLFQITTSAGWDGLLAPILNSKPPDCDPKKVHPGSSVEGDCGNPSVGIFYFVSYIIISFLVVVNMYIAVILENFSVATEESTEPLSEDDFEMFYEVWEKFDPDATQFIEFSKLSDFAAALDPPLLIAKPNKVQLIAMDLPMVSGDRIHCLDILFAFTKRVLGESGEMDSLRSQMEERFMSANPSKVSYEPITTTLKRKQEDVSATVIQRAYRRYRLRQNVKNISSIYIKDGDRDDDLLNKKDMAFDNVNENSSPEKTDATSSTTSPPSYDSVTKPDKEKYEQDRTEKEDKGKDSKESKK
Assay: Nav 1.7 in vitro PX assay (PatchXpress whole cell voltage clamp);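 further: holding potential set for 20 to 50% inactivation, sodium current evoked by a 20 ms step to −10 mV, peak current inhibition read after compound exposure, 3–5 cells per concentration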
Format: cell-based
Details: in-vitro Nav 1.7 PX (PatchXpress)
endpoint_label: pIC50
The meaning of pIC50 here: minus log10 of the concentration in molar units.

Some entries whose results are on file:
>>> df
                                   compound  endpoint_label  test_value
0  COc1cc(-c2cc(F)cc(C3CC3)c2)c(C)cc1-c1ncnc2cc(S(=O)(=O)Nc3ccon3)ccc12 [Example 306]           pIC50        7.21
1  COc1cc(-c2ccc(C)c(Cl)c2F)c(F)cc1-c1ncnc2cc(S(=O)(=O)Nc3ccon3)ccc12 [Example 296]           pIC50        6.98
2  COc1cc(-c2ccc(Cl)c(F)c2)ccc1-c1nccc2cc(S(=O)(=O)Nc3ccon3)ccc12 [Example 290]           pIC50        6.86

Req: Short answer please: pIC50, UniProt Q15858, entry COc1cc(-c2ccc(C)c(Cl)c2)ccc1-c1nccc2cc(S(=O)(=O)Nc3ccon3)ccc12 [Example 287]
Resp: 6.95

====

Target: Nav 1.5 (Homo sapiens (Human), UniProt Q14524)
Sequence (Q14524 whole entry): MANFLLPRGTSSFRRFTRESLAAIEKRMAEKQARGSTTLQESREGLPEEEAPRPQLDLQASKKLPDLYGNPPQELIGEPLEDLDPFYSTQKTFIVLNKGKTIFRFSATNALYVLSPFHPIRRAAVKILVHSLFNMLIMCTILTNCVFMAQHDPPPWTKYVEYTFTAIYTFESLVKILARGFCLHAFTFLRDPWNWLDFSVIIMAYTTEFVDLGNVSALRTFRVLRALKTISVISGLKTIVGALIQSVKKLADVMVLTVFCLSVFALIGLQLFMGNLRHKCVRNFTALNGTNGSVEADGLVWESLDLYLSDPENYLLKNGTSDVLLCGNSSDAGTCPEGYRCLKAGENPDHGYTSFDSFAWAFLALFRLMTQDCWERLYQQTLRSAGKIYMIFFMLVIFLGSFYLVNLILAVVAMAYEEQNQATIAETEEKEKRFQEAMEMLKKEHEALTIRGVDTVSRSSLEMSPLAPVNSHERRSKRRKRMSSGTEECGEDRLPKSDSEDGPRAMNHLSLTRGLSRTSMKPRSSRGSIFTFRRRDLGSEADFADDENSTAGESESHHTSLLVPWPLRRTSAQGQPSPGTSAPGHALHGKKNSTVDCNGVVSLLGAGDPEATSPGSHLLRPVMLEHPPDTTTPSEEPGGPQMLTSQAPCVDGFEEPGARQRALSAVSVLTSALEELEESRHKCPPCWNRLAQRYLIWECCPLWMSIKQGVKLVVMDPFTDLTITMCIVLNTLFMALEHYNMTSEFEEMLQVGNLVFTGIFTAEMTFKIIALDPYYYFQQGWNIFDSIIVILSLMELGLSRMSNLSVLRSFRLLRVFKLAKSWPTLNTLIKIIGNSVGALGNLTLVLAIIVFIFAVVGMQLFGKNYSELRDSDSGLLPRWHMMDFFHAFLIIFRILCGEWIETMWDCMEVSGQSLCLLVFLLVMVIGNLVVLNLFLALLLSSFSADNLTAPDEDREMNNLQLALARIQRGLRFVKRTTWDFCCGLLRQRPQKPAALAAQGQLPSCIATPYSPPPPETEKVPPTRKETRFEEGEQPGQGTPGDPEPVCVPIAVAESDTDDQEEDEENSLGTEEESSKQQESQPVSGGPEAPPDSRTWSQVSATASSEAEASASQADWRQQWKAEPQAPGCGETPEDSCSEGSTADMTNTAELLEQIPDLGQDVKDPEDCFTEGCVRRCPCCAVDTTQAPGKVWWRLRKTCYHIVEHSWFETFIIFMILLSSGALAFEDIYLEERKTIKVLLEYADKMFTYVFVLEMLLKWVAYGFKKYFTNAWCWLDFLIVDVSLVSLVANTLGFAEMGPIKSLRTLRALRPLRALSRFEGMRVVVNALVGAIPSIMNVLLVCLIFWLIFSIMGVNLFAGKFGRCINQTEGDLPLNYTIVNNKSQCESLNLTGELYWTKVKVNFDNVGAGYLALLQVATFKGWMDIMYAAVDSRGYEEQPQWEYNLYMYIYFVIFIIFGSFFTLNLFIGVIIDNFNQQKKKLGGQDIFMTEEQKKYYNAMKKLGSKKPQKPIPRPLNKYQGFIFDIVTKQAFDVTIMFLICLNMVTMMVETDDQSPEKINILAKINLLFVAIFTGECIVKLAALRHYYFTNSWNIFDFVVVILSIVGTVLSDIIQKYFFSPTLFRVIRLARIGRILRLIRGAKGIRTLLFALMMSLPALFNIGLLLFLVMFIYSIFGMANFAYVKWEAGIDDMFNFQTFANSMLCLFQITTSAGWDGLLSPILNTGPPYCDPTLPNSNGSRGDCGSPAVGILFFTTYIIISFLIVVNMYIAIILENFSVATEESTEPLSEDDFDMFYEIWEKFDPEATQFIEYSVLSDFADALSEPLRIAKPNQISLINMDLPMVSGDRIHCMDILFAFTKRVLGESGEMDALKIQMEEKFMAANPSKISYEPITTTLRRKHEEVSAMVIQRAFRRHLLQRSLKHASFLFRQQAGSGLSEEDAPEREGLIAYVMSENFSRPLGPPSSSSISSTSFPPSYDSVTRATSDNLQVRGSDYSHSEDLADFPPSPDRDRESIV
Test: in-vitro Nav 1.5 PX data
Conditions: read-out: Nav 1.5 PX IC50; in-vitro Nav 1.5 PX data
pIC50: −log10 of the molar value.
endpoint_label: pIC50

Some entries whose results are on file:
>>> df
                                smiles_text                              study_system  test_value
0  COc1cc(-c2cc(F)cc(F)c2)ccc1-c1nccc2cc(S(=O)(=O)Nc3ccon3)ccc12  Nav 1.5 (Homo sapiens (Human), UniProt Q14524)      < 4.52
1  COc1cc(-c2cc(F)cc(F)c2)c(C)cc1-c1nccc2cc(S(=O)(=O)Nc3nncs3)ccc12  Nav 1.5 (Homo sapiens (Human), UniProt Q14524)      < 5.00

Req: Fill blank: measured pIC50 of the compound COc1cc(-c2ccc(F)c(Cl)c2)c(C#N)cc1-c1nccc2cc(S(=O)(=O)Nc3ccncn3)ccc12 is ____.
Resp: 5.23

Req: Please do the same for COc1cc(-c2ccccc2C)c(C#N)cc1-c1nccc2cc(S(=O)(=O)Nc3ccncn3)ccc12 as well.
Resp: < 5.00

Req: Please do the same for COc1cc(-c2cc(F)cnc2OC)ccc1-c1nccc2cc(S(=O)(=O)Nc3nncs3)ccc12 as well.
Resp: < 4.52

Req: Please do the same for COc1cc(-c2ccc(Cl)c(F)c2)c(C#N)cc1-c1nccc2cc(S(=O)(=O)Nc3ccncn3)ccc12 as well.
Resp: < 4.52

Req: Please do the same for COc1cc(-c2ccc(Cl)c(C)c2)c(C#N)cc1-c1nccc2cc(S(=O)(=O)Nc3ccncn3)ccc12 as well.
Resp: < 4.52

Req: Please do the same for COc1cc(-c2cc(C)c(C)cc2C)c(C#N)cc1-c1nccc2cc(S(=O)(=O)Nc3ccncn3)ccc12 as well.
Resp: < 4.52

Req: Please do the same for COc1ccc(F)cc1-c1cc(OC)c(-c2nccc3cc(S(=O)(=O)Nc4ccncn4)ccc23)cc1C#N as well.
Resp: < 5.00

Req: Please do the same for COc1cc(-c2cccc(C)c2)c(C#N)cc1-c1nccc2cc(S(=O)(=O)Nc3ccncn3)ccc12 as well.
Resp: 4.51

Req: Please do the same for COc1cc(-c2cccc(C(F)(F)F)c2)c(C#N)cc1-c1nccc2cc(S(=O)(=O)Nc3ccon3)ccc12 as well.
Resp: < 5.00
